Origin of values: PubChem BioAssay

Listed here are compounds together with their documented viability.
Protocol Notes: reversal of MRP1-mediated doxorubicin resistance, pilot screen, H69AR cells, doxorubicin co-treatment (AID 601)
Test Parameters: H69AR cells + 2 uM doxorubicin, CellTiter-Glo, 72 h; measured here: viability with 2 uM doxorubicin; at 10 µM; stronger effect = lower value
State just the number; it will be interpreted in %.

Consider the reported viability for these compounds:
{"Compound": "c1ccc(CNc2ncnc3ccccc23)cc1", "Unit Label": "%", "viability": 97.3}
{"Compound": "O=C(Cn1ccc2ccccc2c1=O)NCCC(=O)N1CCN(C(=O)c2ccco2)CC1", "Unit Label": "%", "viability": 91.4}
{"Compound": "CCOC(=O)c1c(NC(=O)CSc2nnc(-c3cccnc3)o2)sc(C)c1C", "Unit Label": "%", "viability": 85.1}
{"Compound": "CCCCOc1cc(=O)[nH]c(=O)[nH]1", "Unit Label": "%", "viability": 93.4}

What does the record list as viability for CCCCCCC(C)n1[nH]c(=O)c2c(C)cc(=O)[nH]c21 (stereo unspecified) ?
98.6

What does the record list as viability for Cc1cc(NC(=O)CCC(=O)N(c2cccnc2)C(C(=O)NC2CCCC2)c2ccccc2F)no1 (stereo unspecified) ?
88.6

What does the record list as viability for CCOC(=O)C1CCN(c2c(N(C)Cc3ccco3)c(=O)c2=O)CC1 ?
88.9

What does the record list as viability for COc1ccc(N2CCN(C(c3cccs3)C(C)NC(=O)c3ccco3)CC2)cc1 (stereo unspecified) ?
90.3

What does the record list as viability for CCCSc1nc2c(c(=O)[nH]c(=O)n2C)n1CCc1ccccc1 ?
96.6

What does the record list as viability for N#Cc1c(N)nc2c(c1-c1ccncc1)CCCCC2 ?
94

What does the record list as viability for O=C(O)c1cccc(S(=O)(=O)N2CCOCC2)c1 ?
95.5
